Data provenance is patent US20070059799A1.

- SUBJECT_OF_TEST: HLA-A*0201 (Human)
- ASSAY_DETAILS: inhibition of 125I-probe binding to purified HLA
- TEST_PARAMETERS: remark: other sources report otherwise

| BINDER | IC50 |
| --- | --- |
| VLLDYQGMLPV (modifications not checked) [HBV env 259 11-mer (peptide 1147.14) …] | < 500 nM |
